assay: Drug concentration in diet-induced obesity model of C57BL/6J mouse at 100 mg/kg,po measured after 10 days; type: ADME, organism-based; conditions: in vivo, time 10 day, read-out: Drug uptake
PROPERTY LABEL: concentration at 240 h (ng/mL)

line_notation=COc1ccc(C(=O)C2CCN(C(=O)c3ccc(C(=O)NC4CCN(Cc5ccc(C#N)cc5)CC4)cn3)CC2)cc1 property_label="concentration at 240 h" reported=84

====

target: AMP-activated protein kinase, AMPK; assay: Activation of AMPK in human HepG2 cells assessed as reduction in mitochondrial ATP production incubated for 1 hr
PROPERTY LABEL: IC50 (nM)

line_notation=N#Cc1ccc(CN2CCC(NC(=O)c3ccc(C(=O)N4CCC(C(=O)c5ccc(N6CCCC6)cc5)CC4)nc3)CC2)cc1 property_label=IC50 reported=1660
line_notation=N#Cc1ccc(CN2CCC(NC(=O)c3ccc(C(=O)N4CCC(Oc5ccc(C#N)cc5)CC4)nc3)CC2)cc1 property_label=IC50 reported=476
line_notation=N#Cc1ccc(CN2CCC(NC(=O)c3ccc(C(=O)N4CCC(Oc5ccc(F)cc5F)CC4)nc3)CC2)cc1 property_label=IC50 reported=522
line_notation=COc1ccc(CN2CCC(NC(=O)c3ccc(C(=O)N4CCC(C(=O)c5ccc(N6CCCC6)cc5)CC4)nc3)CC2)cc1 property_label=IC50 reported=200

====

target: AMP-activated protein kinase, AMPK; test: Activation of AMPK in human HepG2 cells assessed as reduction in mitochondrial ATP production incubated for 1 hr
Quick reference for IC50 among some compounds
PROPERTY LABEL: IC50

compound=N#Cc1ccc(CN2CCC(NC(=O)c3ccc(C(=O)N4CCC(Oc5ccc(C#N)cc5)CC4)cn3)CC2)cc1 property_label=IC50 reported="125 nM"
compound=N#Cc1ccc(CN2CCC(NC(=O)c3ccc(C(=O)N4CCC(F)(C(=O)c5ccc(F)cc5)CC4)cn3)CC2)cc1 property_label=IC50 reported="16 nM"
compound=N#Cc1ccc(CN2CCC(NC(=O)c3ccc(C(=O)N4CCC(C(=O)c5ccc(F)cc5)CC4)cn3)CC2)cc1 property_label=IC50 reported="21 nM"
compound=O=C(NC1CCN(Cc2ccccc2)CC1)c1ccc(C(=O)N2CCN(Cc3ccccc3)CC2)nc1 property_label=IC50 reported="1390 nM"
compound="N#Cc1ccc(CN2CCC(NC(=O)c3ccc(C(=O)N4CCC(C(F)c5ccc(F)cc5)CC4)cn3)CC2)cc1 (stereo not drawn)" property_label=IC50 reported="1 nM"
compound=N#Cc1ccc(CN2CCC(NC(=O)c3ccc(C(=O)N4CCC(Oc5ccc(F)cc5F)CC4)cn3)CC2)cc1 property_label=IC50 reported="22 nM"
compound=COc1ccc(CC2CCN(C(=O)c3ccc(C(=O)NC4CCN(Cc5ccc(C#N)cc5)CC4)nc3)CC2)cc1 property_label=IC50 reported="7 nM"
compound=COc1ccc(C(=O)C2CCN(C(=O)c3ccc(C(=O)NC4CCN(Cc5ccc(OC(F)(F)F)cc5)CC4)cn3)CC2)cc1 property_label=IC50 reported="820 nM"

====

molecular target: AMP-activated protein kinase, AMPK; test: Activation of AMPK in human HepG2 cells assessed as reduction in mitochondrial ATP production incubated for 1 hr
pIC50: −log10 of the molar value.
PROPERTY LABEL: pIC50

line_notation=COc1ccc(CN2CCC(NC(=O)c3ccc(C(=O)N4CCC(C(=O)c5ccc(OC)cc5)CC4)nc3)CC2)cc1 assayed_target="AMP-activated protein kinase, AMPK" reported=5.64
line_notation=O=C(NC1CCN(Cc2ccc(OC(F)(F)F)cc2)CC1)c1ccc(C(=O)N2CCC(C(=O)c3ccc(N4CCCC4)cc3)CC2)nc1 assayed_target="AMP-activated protein kinase, AMPK" reported=5.89
line_notation=COc1ccc(OC2CCN(C(=O)c3ccc(C(=O)NC4CCN(Cc5ccc(C#N)cc5)CC4)nc3)CC2)cc1 assayed_target="AMP-activated protein kinase, AMPK" reported=7.22
line_notation=N#Cc1ccc(CN2CCC(NC(=O)c3ccc(C(=O)N4CCC(C(=O)c5ccc(F)cc5F)CC4)nc3)CC2)cc1 assayed_target="AMP-activated protein kinase, AMPK" reported=5.73
